Test system: Candida albicans
Assay Remarks: Antifungal activity against Candida albicans MTCC 227 by conventional broth microdilution method
Format: functional
Below, each entry is listed with its recorded MIC.
Numeric only. Scale: mg/L

Below are worked cases with known answers.
COC1=CC(=O)C[C@@H](C)[C@]12Oc1c(Cl)c(OC)cc(OC)c1C2=O
500
N#CCCSC1=NC(c2cccc(O)c2)=CC(c2cc3cc(Cl)ccc3nc2Cl)N1 (configuration not stated)
500
N#CCCSC1=NC(c2ccc(F)cc2)=CC(c2cc3cc(Cl)ccc3nc2Cl)N1 (configuration not stated)
1000
N#CCCSC1=NC(c2ccccc2)=CC(c2cc3cc(Cl)ccc3nc2Cl)N1 (configuration not stated)
1000

Value of measured MIC for the entry N#CCCSC1=NC(c2ccc(O)cc2)=CC(c2cc3cc(Cl)ccc3nc2Cl)N1 (configuration not stated) : 250
